Entries and their melting point

1) COc1ccc(-c2nc(C)ccc2OC2SCC(O)C(O)C2O)cc1 (stereo unspecified); 86 to 90 °C

input: Tell me the measured melting point of O=C(O)CCc1cc(OCCCc2cn(-c3ccc(C(F)(F)F)cn3)nc2C2CCCCC2)nn1C1CCCCC1 , please.
output: 190 to 191 °C

input: Tell me the measured melting point of COc1ccc(C2SCCCS2)cc1 , please.
output: 117 to 119 °C

input: Tell me the measured melting point of OCc1cc(O)cc2cc(-c3ccc(O)cc3)oc12 , please.
output: 258 to 260 °C

input: Tell me the measured melting point of CSC12SCC(COC(C)=O)(OS(C)(=O)=O)C(C(=O)OCc3ccc([N+](=O)[O-])cc3)N1C(=O)C2N=[N+]=[N-] (stereo unspecified) , please.
output: 147 °C

input: Tell me the measured melting point of CC(C)Nc1cccnc1N1CCN(C(=O)c2ccc(C(=O)NCCCN3CCOCC3)cc2)CC1 , please.
output: 103 °C

* * *

Entries and their melting point

Field: example entries. Status: answers known.
1. CS(=O)(=O)O[C@@H]([C@H](OS(C)(=O)=O)[C@H](Cc1ccccc1)NC(=O)OCc1ccccc1)[C@H](Cc1ccccc1)NC(=O)OCc1ccccc1; 153 to 155 °C
2. CCNC(=NNc1c(Cl)cc(C(F)(F)F)cc1Cl)C1(C)CC1(Cl)Cl (stereo unspecified); 79 °C
3. Nc1ccc(Oc2ccc(C3(c4ccc(Oc5ccc(N)cc5)cc4)CCC(c4ccccc4)CC3)cc2)cc1; 90.7 to 92.2 °C
4. CN(N)c1cc(Cl)ncn1; 182 to 185 °C
5. CC(C)(c1ccccc1)c1ccc2nc(-c3ccc(C(F)(F)F)cc3)oc(=O)c2c1; 104 to 105 °C
6. CC=CC(C)=C1C(=O)OC(=O)C1c1cc(C)n(-c2ccccc2)c1C (stereo unspecified); 172 °C
7. CNS(=O)(=O)c1cn(C)c2cc(C)ccc2c1=O; 237 to 240 °C
8. CN(C)C=NS(=O)(=O)c1cc2ccncc2s1; 169 to 171 °C

input: Tell me the measured melting point of CCC(C)COc1ccc(-c2ccc(O)c(Br)c2)cc1 (stereo unspecified) , please.
output: 49.4 °C

input: Tell me the measured melting point of CCCCN(CCCC)c1ccc(C=CC=CC2=C(C#N)C(=C(C#N)C#N)OC2(C)C)c(OC)c1 , please.
output: 181 to 184 °C

input: Tell me the measured melting point of Cc1c(NC(=O)c2ccc(-c3ccc4c(c3)CCCCO4)cc2)ccc2cc(CN3CCCC3)cnc12 , please.
output: 162 to 163 °C

input: Tell me the measured melting point of COc1ccc(-c2ccc(C(C)=NOCCO)cc2)cc1 , please.
output: 164 to 166 °C

input: Tell me the measured melting point of COC(=O)CCCNC(=O)N1CCN(c2cc3c(cc2F)c(=O)c(C(=O)O)cn3C2CC2)CC1 , please.
output: 198 to 200 °C

input: Tell me the measured melting point of O=S=NNc1cccc(C(F)(F)F)c1 , please.
output: 100 °C

input: Tell me the measured melting point of CC(=O)c1sc(-c2ccc(C(F)(F)F)cc2)nc1C , please.
output: 89 to 90 °C

input: Tell me the measured melting point of [N-]=[N+]=NC1(O)CC(n2cc(Br)c(=O)[nH]c2=O)OC1CO (stereo unspecified) , please.
output: 148 to 149 °C

* * *

MEASURED PARAMETER: melting point

Field: example entries. Status: answers known.
1) O=C(NN=Cc1cccc2ccccc12)c1cc2ccccc2cc1O; 214 °C
2) CC(C)(C)Oc1nc2cc(F)c([N+](=O)[O-])cc2[nH]c1=NC#N; 161 to 164 °C
3) CS(=O)(=O)c1cc(C=O)cc(O)c1O; 169 to 171 °C
4) CCCc1c(SCCCOc2ccc(C(C)=O)c(OCCCC(=O)O)c2CCC)ccc(C(C)=O)c1O; 79 to 81 °C
5) O=C1CCC(N2Cc3c(CNC(=O)Nc4ccc(Cl)c(Cl)c4)cccc3C2=O)C(=O)N1 (stereo unspecified); 253 to 255 °C

input: Tell me the measured melting point of CCOC(CCCNS(=O)(=O)c1ccccc1)OCC , please.
output: 109 °C

* * *

MEASURED PARAMETER: melting point

input: Tell me the measured melting point of CC(C)Oc1ccc(Oc2ccc3c(c2)c(C(=O)O)c(CC(=O)O)n3-c2cccc(Cl)c2)cc1 , please.
output: 188 to 190 °C

input: Tell me the measured melting point of COC(=O)C(C)c1ccc2nc(-c3ccc(Cl)cc3)ccc2c1 (stereo not drawn) , please.
output: 114 to 115 °C

* * *

MEASURED PARAMETER: melting point

1) Nc1cc(=O)n(Cc2ccccc2[N+](=O)[O-])[nH]1; 190 °C
2) CC(C)c1ccc(S(=O)(=O)c2ccccc2)cc1S(=O)(=O)NC1CCN(C(=O)c2ccc(C(C)(C)C)cc2)CC1; 150 to 152 °C
3) COc1ccc(C(=O)N[C@H](Cc2ccc(C(F)(F)F)cc2)[C@@H](O)c2ccc(F)cc2)cc1 (racemic); 192 to 193 °C
4) COc1cc([N+](=O)[O-])c(CCC(=O)O)c([N+](=O)[O-])c1O; 195 °C

input: Tell me the measured melting point of CCc1[nH]n(C2CCCC2)c2nc(-c3cccc(OCc4ccncc4)c3)nc(=O)c1-2 , please.
output: 230 to 232 °C

input: Tell me the measured melting point of O=c1oc2cc(O)cc(O)c2c(O)c1C1c2ccccc2Oc2c1c(=O)oc1cc(O)cc(O)c21 (centres undefined) , please.
output: > 300 °C

* * *

MEASURED PARAMETER: melting point

1. CC(=O)NCc1cccc(-c2csc(N=C(N)N)n2)n1; 198 to 200 °C
2. CC(C)Oc1c(Br)csc1C(=O)Nc1nnn[nH]1; 193 to 194 °C
3. C[C@]12CCC3=C4CCC(=O)C=C4CC[C@H]3[C@@H]1CCC21OCCC1O (some centres undefined); 180 °C

input: Tell me the measured melting point of O=c1c(Cl)c(OCc2ccc(Cl)cc2)cnn1-c1ccc(Cl)cn1 , please.
output: 167 to 169 °C

input: Tell me the measured melting point of O=C1c2ccccc2C(=O)N1OCF , please.
output: 126 to 127 °C

input: Tell me the measured melting point of COc1cc(C(=O)NCCC2Cc3c(C)c(OCc4ccccc4)c(C)c(C)c3O2)cc(OC)c1OC (racemic) , please.
output: 171 to 173 °C

input: Tell me the measured melting point of Cn1nc(C(=O)NCc2ccc(Cl)cc2)c(=O)c2cc(I)ccc21 , please.
output: 194 to 195 °C

input: Tell me the measured melting point of COC(=O)[C@H]1NC(=O)[C@H]1N (relative stereo) , please.
output: 59 to 61 °C

input: Tell me the measured melting point of CN(C)c1cncc(C#N)c1 , please.
output: 104 °C

* * *

Entries and their melting point

Field: example entries. Status: answers known.
1) CN1CCN(c2cc(Br)cc3c2c(=O)n(Cc2ccccc2Cl)c(=O)n3Cc2ccccc2)CC1; 104 to 108 °C
2) CN(C)c1cccc2c(S(=O)(=O)Nc3ccc(I)nn3)cccc12; 176 to 178 °C
3) CC(=O)N(C(C)=O)c1cc2c(cc1C)N(C(C)=O)c1ccc(N(C)C)cc1N2C(C)=O; 231 to 234 °C
4) COC(=O)C(=NOCF)c1ccccc1Oc1ncnc(Oc2ccccc2Cl)c1F; 153 to 155 °C
5) CCO/C(=C\c1ccsc1)C(=O)O; 88 to 89 °C
6) FC(F)(F)Cn1c(-c2c(Cl)cccc2Cl)nc(-c2ccncc2)c1-c1ccc(Cl)cc1; 213 to 214 °C
7) Cn1ncc(C(=O)N2CCCC2)c1C(=O)Nc1ccc2nc(-c3cccnc3)nn2c1; 251 °C
8) COc1cc(CNC(C)=O)c(Br)cc1O; > 300 °C
9) CCCCCCCCCCCCCCOC(=O)c1ccc(Cl)c(NC(=O)C(C(=O)c2ccccc2)N2C(=O)c3ccccc3C2=O)c1 (stereo not drawn); 81 to 82 °C
10) CCCCNS(=O)(=O)c1cc(C(=O)O)cc(N)c1Sc1ccc(NC(C)=O)cc1; 228 to 229 °C

input: Tell me the measured melting point of COc1ccccc1Oc1c(NS(=O)(=O)c2ccc(C(C)(C)C)cc2)nc(-c2ncccn2)nc1OCCOc1ccc(C(C)O)cc1 (stereo not drawn) , please.
output: 191 to 194 °C

input: Tell me the measured melting point of COCCOC1=CC(=O)C(Nc2ncnc3cc(OCCOC)c(OC)cc23)=CC1=O , please.
output: 211 to 212 °C

input: Tell me the measured melting point of Cn1ncc2c1-c1c(Oc3ccc(F)cc3)sc(C(N)=O)c1CC2 , please.
output: 188 to 189 °C

input: Tell me the measured melting point of CC(C)c1ccc(-c2nc(Cl)c(C=O)n2Cc2ccc(-c3ccccc3S(=O)(=O)N=CN(C)C)cc2)cc1 , please.
output: 177 °C
